// data source = patent US11040949B2

system: S. aureus ATCC29213; assay: IM032 staphyloxanthin production inhibition; type: cell-based; conditions: Staphylococcus aureus, ATCC 29213 / MSSA, Table 6
Quantity Kind: IC50 (nM)
Answer with a number only, understood to be in nM.

**Q:** What value of IC50 has been recorded for this entry: O=C(/C=C/c1ccccc1Br)Nc1ccc(S(=O)(=O)N2CCCCC2)cc1
**A:** 18

###

tested on: S. aureus JE2; test: IM032 staphyloxanthin production inhibition; assay type: cell-based; conditions: Staphylococcus aureus, MRSA
Quantity Kind: pIC50
# log scale: pIC50 equals minus log10 of the concentration in mol/L

**Q:** What value of pIC50 has been recorded for this entry: O=C(/C=C/c1ccccc1Br)Nc1ccc(S(=O)(=O)N2CCCCC2)cc1
**A:** 7.59

###

system: S. aureus ATCC29213; assay: IM032 staphyloxanthin production inhibition; format: cell-based; conditions: Staphylococcus aureus, ATCC 29213 / MSSA, Table 8
Quantity Kind: IC50 (µM)
Answer with a number only, understood to be in µM.

**Q:** What value of IC50 has been recorded for this entry: O=C(/C=C/c1ccccc1Br)Nc1ccc(S(=O)(=O)N2CCCCC2)cc1 [NP16-XL-016]
**A:** 0.03

###

tested on: S. aureus FPR3757; assay: IM032 staphyloxanthin production inhibition; format: cell-based; conditions: Staphylococcus aureus, MRSA, Table 7, second experiment; FPR3757, MRSA (CA), positive control
Quantity Kind: pIC50
# log scale: pIC50 equals minus log10 of the concentration in mol/L

**Q:** What value of pIC50 has been recorded for this entry: O=C(/C=C/c1ccccc1Br)Nc1ccc(S(=O)(=O)N2CCCCC2)cc1
**A:** 7.55

###

system: S. aureus USA300; assay: In vitro staphyloxanthin production inhibition by NP-16 analogues; assay type: cell-based, Staphylococcus aureus; settings: S. aureus USA300, methanol extract OD 450 nm, 300 nM to 700 nM
Decision: Relative ratio to NP16 based on inhibition ratio compared against 2; not below it gives criterion met, below it gives criterion not met.

**Q:** Quick check: does O=C(/C=C/c1ccccn1)Nc1ccc(S(=O)(=O)Nc2ccccc2)cc1 [NP16-XL-044] have Relative ratio to NP16 based on inhibition ratio greater than or equal to 2?
**A:** criterion met

**Q:** Quick check: does Cc1ccc(/C=C/C(=O)Nc2ccc(S(=O)(=O)N3CCCCC3)cc2)cc1 [NP16-XL-017] have Relative ratio to NP16 based on inhibition ratio greater than or equal to 2?
**A:** criterion not met

**Q:** Quick check: does CN1CCN(S(=O)(=O)c2ccc(NC(=O)/C=C/c3ccccc3C#N)cc2)CC1 [NP16-XL-055] have Relative ratio to NP16 based on inhibition ratio greater than or equal to 2?
**A:** criterion met

**Q:** Quick check: does O=C(/C=C/c1ccccc1)Nc1ccc(S(=O)(=O)N2CCCC2)cc1 [NP16] have Relative ratio to NP16 based on inhibition ratio greater than or equal to 2?
**A:** criterion not met

**Q:** Quick check: does CN1CCN(S(=O)(=O)c2ccc(NC(=O)/C=C/c3ccccc3Br)cc2)CC1 [NP16-XL-052] have Relative ratio to NP16 based on inhibition ratio greater than or equal to 2?
**A:** criterion met

**Q:** Quick check: does O=C(/C=C/c1ccccc1)Nc1ccc(S(=O)(=O)N2CCCCC2)cc1 [NP16-XL-010] have Relative ratio to NP16 based on inhibition ratio greater than or equal to 2?
**A:** criterion not met

**Q:** Quick check: does O=C(/C=C/c1ccccc1Br)Nc1ccc(S(=O)(=O)N(C(=O)/C=C/c2ccccc2Br)c2ccccc2)cc1 [NP16-XL-039] have Relative ratio to NP16 based on inhibition ratio greater than or equal to 2?
**A:** criterion met

**Q:** Quick check: does O=C(Nc1ccc(S(=O)(=O)N2CCCCC2)cc1)c1cc(-c2cccs2)on1 [NP16-XL-060] have Relative ratio to NP16 based on inhibition ratio greater than or equal to 2?
**A:** criterion not met

###

system: S. aureus USA300; assay: In vitro staphyloxanthin production inhibition by NP-16 analogues; format: cell-based, Staphylococcus aureus; conditions: S. aureus USA300, methanol extract OD 450 nm, 300 nM to 700 nM
Decision: Relative ratio to NP16 based on inhibition ratio compared against 1; not below it gives yes (1), below it gives no (0).

**Q:** Quick check: does CC(=O)Oc1ccc(/C=C/C(=O)Nc2ccc(S(=O)(=O)N3CCCCC3)cc2)cc1 have Relative ratio to NP16 based on inhibition ratio greater than or equal to 1?
**A:** yes (1)

**Q:** Quick check: does O=C(Nc1ccc(S(=O)(=O)N2CCCCC2)cc1)c1ncoc1-c1ccccc1 have Relative ratio to NP16 based on inhibition ratio greater than or equal to 1?
**A:** no (0)

**Q:** Quick check: does O=C(/C=C/c1c(Br)cccc1Br)Nc1ccc(S(=O)(=O)N2CCCCC2)cc1 have Relative ratio to NP16 based on inhibition ratio greater than or equal to 1?
**A:** no (0)

**Q:** Quick check: does N#Cc1ccc(-c2cc(C(=O)Nc3ccc(S(=O)(=O)N4CCCCC4)cc3)no2)cc1 have Relative ratio to NP16 based on inhibition ratio greater than or equal to 1?
**A:** no (0)

**Q:** Quick check: does O=C(/C=C/c1ccccc1F)Nc1ccc(S(=O)(=O)Nc2ccccc2)cc1 have Relative ratio to NP16 based on inhibition ratio greater than or equal to 1?
**A:** yes (1)

**Q:** Quick check: does O=C(/C=C/c1ccccc1Br)Nc1ccc(S(=O)(=O)N2CCCCC2)cc1 have Relative ratio to NP16 based on inhibition ratio greater than or equal to 1?
**A:** yes (1)

**Q:** Quick check: does O=C(/C=C/c1ccc(Br)cc1)Nc1ccc(S(=O)(=O)N2CCCc3ccccc32)cc1 have Relative ratio to NP16 based on inhibition ratio greater than or equal to 1?
**A:** no (0)

**Q:** Quick check: does O=C(/C=C/c1ccccc1)Nc1ccc(S(=O)(=O)N2CCc3ccccc3C2)cc1 have Relative ratio to NP16 based on inhibition ratio greater than or equal to 1?
**A:** yes (1)

**Q:** Quick check: does O=C(/C=C/c1c(F)cccc1F)Nc1ccc(S(=O)(=O)N2CCCCC2)cc1 have Relative ratio to NP16 based on inhibition ratio greater than or equal to 1?
**A:** no (0)

**Q:** Quick check: does O=C(/C=C/c1ccccc1)Nc1ccc(S(=O)(=O)Nc2ccccc2)cc1 have Relative ratio to NP16 based on inhibition ratio greater than or equal to 1?
**A:** yes (1)

**Q:** Quick check: does O=C(/C=C/c1cccnc1)Nc1ccc(S(=O)(=O)Nc2ccccc2)cc1 have Relative ratio to NP16 based on inhibition ratio greater than or equal to 1?
**A:** yes (1)

**Q:** Quick check: does O=C(/C=C/c1cccc(Br)c1)Nc1ccc(S(=O)(=O)N2CCCCC2)cc1 have Relative ratio to NP16 based on inhibition ratio greater than or equal to 1?
**A:** yes (1)

**Q:** Quick check: does O=C(/C=C/c1ccc(Br)cc1)Nc1ccc(S(=O)(=O)N2CCCCC2)cc1 have Relative ratio to NP16 based on inhibition ratio greater than or equal to 1?
**A:** no (0)

**Q:** Quick check: does O=C(/C=C/c1ccccc1Br)Nc1ccc(S(=O)(=O)Nc2ccccc2)cc1 have Relative ratio to NP16 based on inhibition ratio greater than or equal to 1?
**A:** yes (1)

**Q:** Quick check: does CN1CCN(S(=O)(=O)c2ccc(NC(=O)/C=C/c3ccccc3F)cc2)CC1 have Relative ratio to NP16 based on inhibition ratio greater than or equal to 1?
**A:** yes (1)

**Q:** Quick check: does O=C(/C=C/c1ccccc1Br)Nc1ccc(C(=O)Nc2ccccc2)cc1 have Relative ratio to NP16 based on inhibition ratio greater than or equal to 1?
**A:** no (0)

**Q:** Quick check: does O=C(/C=C/c1ccccc1)Nc1ccc(S(=O)(=O)N(C(=O)/C=C/c2ccccc2)c2ccccc2)cc1 have Relative ratio to NP16 based on inhibition ratio greater than or equal to 1?
**A:** yes (1)

**Q:** Quick check: does CC(=O)Oc1ccccc1/C=C/C(=O)Nc1ccc(S(=O)(=O)N2CCCCC2)cc1 have Relative ratio to NP16 based on inhibition ratio greater than or equal to 1?
**A:** no (0)

**Q:** Quick check: does O=C(/C=C/c1ccc(Br)cc1)Nc1ccc(S(=O)(=O)N2CCc3ccccc3C2)cc1 have Relative ratio to NP16 based on inhibition ratio greater than or equal to 1?
**A:** no (0)

**Q:** Quick check: does O=C(/C=C/c1c(F)cccc1F)Nc1ccc(S(=O)(=O)Nc2ccccc2)cc1 have Relative ratio to NP16 based on inhibition ratio greater than or equal to 1?
**A:** yes (1)

**Q:** Quick check: does O=C(/C=C/c1ccccc1)Nc1ccc(S(=O)(=O)N2CCCc3ccccc32)cc1 have Relative ratio to NP16 based on inhibition ratio greater than or equal to 1?
**A:** yes (1)

**Q:** Quick check: does N#Cc1ccccc1/C=C/C(=O)Nc1ccc(S(=O)(=O)N2CCCCC2)cc1 have Relative ratio to NP16 based on inhibition ratio greater than or equal to 1?
**A:** yes (1)

**Q:** Quick check: does CN1CCN(S(=O)(=O)c2ccc(NC(=O)/C=C/c3c(F)cccc3F)cc2)CC1 have Relative ratio to NP16 based on inhibition ratio greater than or equal to 1?
**A:** yes (1)

**Q:** Quick check: does N#Cc1ccccc1/C=C/C(=O)Nc1ccc(S(=O)(=O)Nc2ccccc2)cc1 have Relative ratio to NP16 based on inhibition ratio greater than or equal to 1?
**A:** yes (1)

**Q:** Quick check: does Cc1ccccc1/C=C/C(=O)Nc1ccc(S(=O)(=O)N2CCCCC2)cc1 have Relative ratio to NP16 based on inhibition ratio greater than or equal to 1?
**A:** yes (1)

**Q:** Quick check: does N#Cc1ccccc1/C=C/C(=O)Nc1ccc(C(=O)Nc2ccccc2)cc1 have Relative ratio to NP16 based on inhibition ratio greater than or equal to 1?
**A:** no (0)

**Q:** Quick check: does CC(=O)Oc1cccc(/C=C/C(=O)Nc2ccc(S(=O)(=O)N3CCCCC3)cc2)c1 have Relative ratio to NP16 based on inhibition ratio greater than or equal to 1?
**A:** yes (1)
